Would you mind telling me the reported apparent KD of MS2 coat protein of each entry?
system: MS2 coat protein; assay: apparent KD of MS2 coat protein; designed switch direction (-1 OFF switch, 1 ON switch): -1; higher = weaker reporter binding; conditions: input ligand: none
Enter your answer as a number in nM; do not include the unit.

Entry under test: CACCGUUAACUAGGAUAUCGUACAUGAGGAUCACCCAUGUAAUAAAUGAGAAUUUCGGAUGUAUGCGAGAAGGAGUAAAUCGGC [Ostricism 46 - Jieux - Exclusion NG 2] (Eterna round: R96, puzzle: Exclusion NG 2) . Its apparent KD of MS2 coat protein was 37.3

Entry under test: UUUUGCUCAGGAUAUACAUGAGGAUCACCCAUGUAUAUUGAAGAUAAUACAUGGGAAUGUAGAAGGGAGCUCAU [Omei Ex3 Pseudoloop 19] (Eterna round: R97, puzzle: Exclusion 3) . Its apparent KD of MS2 coat protein was 156

###

Would you mind telling me the reported apparent KD of MS2 coat protein of each entry?
test system: MS2 coat protein; test: apparent KD of MS2 coat protein; higher = weaker reporter binding; conditions: Eterna round: R107; input ligand: none
Enter your answer as a number in nM; do not include the unit.

Entry under test: CGAUCCUGCAGGGAUACCAGCGCCGCUUGAUAACUGUGCACAUGAGGAUCACCCAUGUAGCGCCCUUGGCAGCCCAGCUAGAGGG [Same State Theophylline B GF25] . Its apparent KD of MS2 coat protein was 15

Entry under test: CCGGCCAGGGCGGCCGCCACUGAACGUGGAAGAAAGAAAACAUGAGGAUCACCCAUGUAAAUCCUCAGGACCGGGCCAGGGCCGG . Its apparent KD of MS2 coat protein was 57.8

Entry under test: AAUUAAAACUGAAGGAGCGUCGUGCGUGGGUGCGUCCCACAUGAGGAUCACCCAUGUGGUUGACAGGUAGGUCGCAGAAUAAUUU [Exclusion - Arginine B] . Its apparent KD of MS2 coat protein was 49.7

###

system: MS2 coat protein; assay: apparent KD of MS2 coat protein; higher = weaker reporter binding; conditions: Eterna round: R101; input ligand: FMN 200 uM
Reported Endpoint: apparent KD of MS2 coat protein (nM)
Enter your answer as a number in nM; do not include the unit.

Entry under test: AAAAUGAUUUUAGGAUAUGACUCCGAAACGGAGUCAGAAGGAGGAUCACCCUUUCAAAGCUCAGCGUCGAAAGACGCUGAGCAA [#SharedSequence - ExNG1-20] (puzzle (switch architecture): Exclusion NG 1) . Its apparent KD of MS2 coat protein was 1200

Entry under test: AAAUGAUAUCAGAAGGCGUGGACGAAACGUCCACGAGGAUAUGAGGAUCACCCAUGUCAGGUCAGCCUGCAAAGCAGGCUGACC [#SharedSequence - IExNG1: 7-4] (puzzle (switch architecture): Inverted Exclusion NG 1) . Its apparent KD of MS2 coat protein was 562

Entry under test: UUCACGGCGGGAAUAAGUGGUACUCAGGAUAUGGACUAGAAAUACAUGAGGAUCACCCAUGUGUUCCAGAAGGGAGGGCAUGCG [Tisorabea] (puzzle (switch architecture): Small Loop Same State NG 3) . Its apparent KD of MS2 coat protein was 10.3

Entry under test: CGCGAACAGUUUUAAAAGAGGAUCACCCAUGUGGACUCAUGGUAGGAUAUCGGGAAGGAGGAAACCGAGAAGGGCUGGUGAGCC [salish99_SSNG3_019 #HINGE] (puzzle (switch architecture): Same State NG 3) . Its apparent KD of MS2 coat protein was 18

###

tested on: K4 kissing-loop RNA reporter; assay: apparent KD of K4 kissing-loop reporter; higher = weaker reporter binding; settings: Eterna round: R107; input ligand: none;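 note: bound reporter read as fluorescence of individual clusters on recovered sequencing chips by microscopy, with normalized cluster intensities fitted with a binding model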
Would you mind telling me the reported apparent KD of K4 kissing-loop reporter of each entry?
Enter your answer as a number in nM; do not include the unit.

Entry under test: UUAGAUCUUCUAGAUACCAGUCUGUGUAUCAAUGAUACACUUGACUGAGUGAUGUUCAGAGGCCCUUGGCAGCUAGAAGAUCAUU [AK1 SS Theophylline B] . Its apparent KD of K4 kissing-loop reporter was 727

Entry under test: GGCUUGCUAGUGAUGUUAGCAUUUUCUGAAGGAGCGCGUGAAAACGCAGGUAGGUCGCAGAACCUUGCCAACUAUUUUAGUUGCC [Ex Arginine A K4 27] . Its apparent KD of K4 kissing-loop reporter was 94.3

Entry under test: AAGCAGUCACUCGAAUCCAUCGAAGAUGGGCGAGGACCGGUACGGCCGCCACUCGGAGUGAUGUUCCAAAGACUGCAAAAUAAAA . Its apparent KD of K4 kissing-loop reporter was 306

Entry under test: CUCCGACUAUCGGCCGCCACUAUCGGAAAGUCCACGGACAUUCAAUGCAGUUAGUGAUGUUAACGUAGGACCGGGAUGAUUUGUA [theeternabot_sameState_KL_Trp_B_9] . Its apparent KD of K4 kissing-loop reporter was 659

Entry under test: CCAGGACGAUGAGGAGGAUGAAUUACUGAAGGAGCGCAUAUGGUUGCAGGUAGGUCGCGGUGAACAAGUAUAGUGAUGUUAUAUC [SSArgA.S] . Its apparent KD of K4 kissing-loop reporter was 538

Entry under test: AGGCACGAGCAAGGAUAUCGAGUAGAGUGAUGUUCUGCCUGGGUUGGCUCGGAAGGGCCUUCCCAGCGAGAAGGUGCUCGUGCCU [#2 Same State - FMN A Attempt #16 (HarryS)] . Its apparent KD of K4 kissing-loop reporter was 590

###

Would you mind telling me the reported apparent KD of MS2 coat protein of each entry?
test system: MS2 coat protein; experiment: apparent KD of MS2 coat protein; higher = weaker reporter binding; conditions: Eterna round: R107; input ligand: tryptophan 2.4 mM
Enter your answer as a number in nM; do not include the unit.

Entry under test: UGUAUGGACUGAAGGAGCGCCUCAAAAUAGCUUGAGGAUCACCCAAGUAAGGCGAAAGCCGGGCAGGUAGGUCGCAGUCCAUACU [ArgBX 3] . Its apparent KD of MS2 coat protein was 14.8

Entry under test: CACAUGAGGAUCACCCAUGUCUGAACUGAAGGAGCGCUAAAUAAGGCAGGUAGGUCGCGGAAUUUUGUGUGCAUAUGCACAUGGG [9.P] . Its apparent KD of MS2 coat protein was 23.9

Entry under test: AACGUAUACAGAAGGAGCGUGAUUUAUAAUUCUUUAAAAUAUACAUGAGGAUCACCCAUGUCACAGGUAGGUCGCUGUAUUCGUA [JR_ExcArginiB_Sub024] . Its apparent KD of MS2 coat protein was 33.2

Entry under test: ACAUCCAGAUUAAUCGUGGGCAUACUCGAUACCAGUAUUUUAAUCUACCCUUGGCAGCGACAUGAGGAUCACCCAUGUGCGAUGA [XTheo A #11] . Its apparent KD of MS2 coat protein was 12.4

Entry under test: AACAUACAAUAAAAGGUGGAAAUAAGGCGGCGAGGACCGGUACGGCCGCCACUCGCGUACAUGAGGAUCACCCAUGUCUGAAACU [Same State - Tryptophan A (Freestyle 2)] . Its apparent KD of MS2 coat protein was 19.1

Entry under test: CGGUCGGUCGGUCGGUGAGUAUGGGAUGAAGGAGCGUGGGAAGCUACAGGUAGGUCGCAUCCGGGACAUGAGGAUCACCCAUGUU [#19 Same State - Arginine A] . Its apparent KD of MS2 coat protein was 25.1

Entry under test: ACAUGAGGAUCACCCAUGUGUGUAAGUUCUCGAGGACCGGUACGGCCGCCACUCGAACGAGUGUAACGUUAUACUUAGUAUAAUG [SS Trp A s4] . Its apparent KD of MS2 coat protein was 11.4

Entry under test: GAUAGAACAAAAGUUUUAUCAGUGGGUGAACGAGGACCGGUACGGCCGCCACUCGGACAUGAGGAUCACCCAUGUCCAUGUGAAA [AstrosExyTryA#17] . Its apparent KD of MS2 coat protein was 43.9

Entry under test: UCGCCCAGGAAGGAUUCCUGGGAUAUGGAAGGAGCGCUGAUGCCAGCAGGUAGGUCGCCAACGGACAUGAGGAUCACCCAUGUAC [Same State - Arginine A (Freestyle 8)] . Its apparent KD of MS2 coat protein was 21.2

Entry under test: CUGACAUGAGGAUCACCCAUGUACACUGAAGGAGCGUCGAGAAUGACAGGUAGGUCGCAGAAUAAUAAUGGUGAUGUUUAGGUAA [Exclusion Arginine A GF 2] . Its apparent KD of MS2 coat protein was 23.4

Entry under test: AUACAUGAGGAUCACCCAUGUCACACAGAAGGAGCGGCUGUAGAGCCAGGUAGGUCGCUGUACUCAAAAUACUUCAUACUCAUGU [JR_Nu_ExcArginiA_Sub033] . Its apparent KD of MS2 coat protein was 27.5

Entry under test: AGAGUCUAGUCGGCCGCCACUCAUGUCCAAAGGACAUGAGGAUCACCCAUGUACCUAAGGUACAUGAGGACCGGGACUGGACUCA [Omei Tryp B SS C v5] . Its apparent KD of MS2 coat protein was 7.92
